Hello, the source for this data is paper PMC10867212, in case you need it.

assay method text: Steady-state plasma pharmacokinetics of intravenous polymyxin B in critically ill patients (non-compartmental analysis)
Format: in vivo, human
experimental context: human, iv, elderly group ≥65 years (n = 17), iv, steady state, non-compartmental, mean ± SD, SD, read-out: Clearance (converted)
Where a SMILES comes first, the peptide text is derived from it. Bridges are numbered along the chain shown (N, C = ends). [ ]: non-standard residue; d: D form. The star is where a group is joined. X1 = CC[C@H](C)CCCCC(=O)*; Dab = NCC[C@H](N)C(=O)O
readout label: clearance (mL/min)

molecule	meas value
CC[C@H](C)CCCCC(=O)N[C@@H](CCN)C(=O)N[C@H](C(=O)N[C@@H](CCN)C(=O)N[C@H]1CCNC(=O)[C@H]([C@@H](C)O)NC(=O)[C@H](CCN)NC(=O)[C@H](CCN)NC(=O)[C@H](CC(C)C)NC(=O)[C@@H](Cc2ccccc2)NC(=O)[C@H](CCN)NC1=O)[C@@H](C)O [polymyxin B] (X1-[Dab]T[Dab][Dab][Dab][dF]L[Dab][Dab]T; lactam 4-C)	39.5

----------
assay method text: Steady-state plasma pharmacokinetics of intravenous polymyxin B in critically ill patients (non-compartmental analysis)
Assay type: in vivo, human
experimental context: human, iv, elderly group ≥65 years (n = 17), iv 1.25–1.5 mg/kg q12h, steady state, HPLC-MS/MS, non-compartmental, mean ± SD, SD, read-out: AUCss, 0–24 h
Where a SMILES comes first, the peptide text is derived from it. Bridges are numbered along the chain shown (N, C = ends). [ ]: non-standard residue; d: D form. The star is where a group is joined. X1 = CC[C@H](C)CCCCC(=O)*; Dab = NCC[C@H](N)C(=O)O

molecule	AUC(0-t) (ng·h/mL)
CC[C@H](C)CCCCC(=O)N[C@@H](CCN)C(=O)N[C@H](C(=O)N[C@@H](CCN)C(=O)N[C@H]1CCNC(=O)[C@H]([C@@H](C)O)NC(=O)[C@H](CCN)NC(=O)[C@H](CCN)NC(=O)[C@H](CC(C)C)NC(=O)[C@@H](Cc2ccccc2)NC(=O)[C@H](CCN)NC1=O)[C@@H](C)O [polymyxin B] (X1-[Dab]T[Dab][Dab][Dab][dF]L[Dab][Dab]T; lactam 4-C)	76200

----------
assay method text: Steady-state plasma pharmacokinetics of intravenous polymyxin B in critically ill patients (non-compartmental analysis)
Assay type: in vivo, human
experimental context: human, iv, all patients (n = 23), iv, steady state, non-compartmental, mean ± SD, SD, read-out: Clearance (converted)
Where a SMILES comes first, the peptide text is derived from it. Bridges are numbered along the chain shown (N, C = ends). [ ]: non-standard residue; d: D form. The star is where a group is joined. X1 = CC[C@H](C)CCCCC(=O)*; Dab = NCC[C@H](N)C(=O)O
readout label: clearance (mL/min)

compound	value units	meas value
CC[C@H](C)CCCCC(=O)N[C@@H](CCN)C(=O)N[C@H](C(=O)N[C@@H](CCN)C(=O)N[C@H]1CCNC(=O)[C@H]([C@@H](C)O)NC(=O)[C@H](CCN)NC(=O)[C@H](CCN)NC(=O)[C@H](CC(C)C)NC(=O)[C@@H](Cc2ccccc2)NC(=O)[C@H](CCN)NC1=O)[C@@H](C)O [polymyxin B] (X1-[Dab]T[Dab][Dab][Dab][dF]L[Dab][Dab]T; lactam 4-C)	mL/min	41.5

----------
assay method text: Steady-state plasma pharmacokinetics of intravenous polymyxin B in critically ill patients (non-compartmental analysis)
Assay type: in vivo, human
experimental context: human, iv, young group <65 years (n = 6), iv, steady state, non-compartmental, mean ± SD, SD, read-out: Clearance (converted)
Where a SMILES comes first, the peptide text is derived from it. Bridges are numbered along the chain shown (N, C = ends). [ ]: non-standard residue; d: D form. The star is where a group is joined. X1 = CC[C@H](C)CCCCC(=O)*; Dab = NCC[C@H](N)C(=O)O

compound	clearance
CC[C@H](C)CCCCC(=O)N[C@@H](CCN)C(=O)N[C@H](C(=O)N[C@@H](CCN)C(=O)N[C@H]1CCNC(=O)[C@H]([C@@H](C)O)NC(=O)[C@H](CCN)NC(=O)[C@H](CCN)NC(=O)[C@H](CC(C)C)NC(=O)[C@@H](Cc2ccccc2)NC(=O)[C@H](CCN)NC1=O)[C@@H](C)O [polymyxin B] (X1-[Dab]T[Dab][Dab][Dab][dF]L[Dab][Dab]T; lactam 4-C)	47.5 mL/min

----------
assay method text: Steady-state plasma pharmacokinetics of intravenous polymyxin B in critically ill patients (non-compartmental analysis)
Assay type: in vivo, human
experimental context: human, iv, young group <65 years (n = 6), iv infusion of at least 1 h, steady state, mean ± SD, SD
Where a SMILES comes first, the peptide text is derived from it. Bridges are numbered along the chain shown (N, C = ends). [ ]: non-standard residue; d: D form. The star is where a group is joined. X1 = CC[C@H](C)CCCCC(=O)*; Dab = NCC[C@H](N)C(=O)O
readout label: Tmax (min)

compound	meas value
CC[C@H](C)CCCCC(=O)N[C@@H](CCN)C(=O)N[C@H](C(=O)N[C@@H](CCN)C(=O)N[C@H]1CCNC(=O)[C@H]([C@@H](C)O)NC(=O)[C@H](CCN)NC(=O)[C@H](CCN)NC(=O)[C@H](CC(C)C)NC(=O)[C@@H](Cc2ccccc2)NC(=O)[C@H](CCN)NC1=O)[C@@H](C)O [polymyxin B] (X1-[Dab]T[Dab][Dab][Dab][dF]L[Dab][Dab]T; lactam 4-C)	49.8

----------
assay method text: Steady-state plasma pharmacokinetics of intravenous polymyxin B in critically ill patients (non-compartmental analysis)
Format: in vivo, human
experimental context: human, iv, elderly group ≥65 years (n = 17), per total body weight, iv, steady state, non-compartmental, mean ± SD, SD, read-out: Volume of distribution per TBW
Where a SMILES comes first, the peptide text is derived from it. Bridges are numbered along the chain shown (N, C = ends). [ ]: non-standard residue; d: D form. The star is where a group is joined. X1 = CC[C@H](C)CCCCC(=O)*; Dab = NCC[C@H](N)C(=O)O
readout label: Vd

compound	meas value
CC[C@H](C)CCCCC(=O)N[C@@H](CCN)C(=O)N[C@H](C(=O)N[C@@H](CCN)C(=O)N[C@H]1CCNC(=O)[C@H]([C@@H](C)O)NC(=O)[C@H](CCN)NC(=O)[C@H](CCN)NC(=O)[C@H](CC(C)C)NC(=O)[C@@H](Cc2ccccc2)NC(=O)[C@H](CCN)NC1=O)[C@@H](C)O [polymyxin B] (X1-[Dab]T[Dab][Dab][Dab][dF]L[Dab][Dab]T; lactam 4-C)	0.4 L/kg

----------
assay method text: Steady-state plasma pharmacokinetics of intravenous polymyxin B in critically ill patients (non-compartmental analysis)
Format: in vivo, human
experimental context: human, iv, young group <65 years (n = 6), per total body weight, iv, steady state, non-compartmental, mean ± SD, SD, read-out: Volume of distribution per TBW
Where a SMILES comes first, the peptide text is derived from it. Bridges are numbered along the chain shown (N, C = ends). [ ]: non-standard residue; d: D form. The star is where a group is joined. X1 = CC[C@H](C)CCCCC(=O)*; Dab = NCC[C@H](N)C(=O)O

molecule	Vd
CC[C@H](C)CCCCC(=O)N[C@@H](CCN)C(=O)N[C@H](C(=O)N[C@@H](CCN)C(=O)N[C@H]1CCNC(=O)[C@H]([C@@H](C)O)NC(=O)[C@H](CCN)NC(=O)[C@H](CCN)NC(=O)[C@H](CC(C)C)NC(=O)[C@@H](Cc2ccccc2)NC(=O)[C@H](CCN)NC1=O)[C@@H](C)O [polymyxin B] (X1-[Dab]T[Dab][Dab][Dab][dF]L[Dab][Dab]T; lactam 4-C)	0.29 L/kg

----------
assay method text: Steady-state plasma pharmacokinetics of intravenous polymyxin B in critically ill patients (non-compartmental analysis)
Format: in vivo, human
experimental context: human, iv, all patients (n = 23), iv, steady state, non-compartmental, mean ± SD, SD, read-out: Volume of distribution
Excerpt: All adult patients admitted to the participating intensive care unit (ICU) in a teaching hospital between December 2021 and July 2023 were consecutively screened for entry into this prospective observational study. […] For steady-state PK assessment, blood samples were obtained after at least six doses of PMB. […] The PMB plasma concentrations were quantified by measuring both polymyxin B1 and B2 using validated high-performance liquid chromatography-tandem mass spectrometry. […]
Where a SMILES comes first, the peptide text is derived from it. Bridges are numbered along the chain shown (N, C = ends). [ ]: non-standard residue; d: D form. The star is where a group is joined. X1 = CC[C@H](C)CCCCC(=O)*; Dab = NCC[C@H](N)C(=O)O

compound	Vd
CC[C@H](C)CCCCC(=O)N[C@@H](CCN)C(=O)N[C@H](C(=O)N[C@@H](CCN)C(=O)N[C@H]1CCNC(=O)[C@H]([C@@H](C)O)NC(=O)[C@H](CCN)NC(=O)[C@H](CCN)NC(=O)[C@H](CC(C)C)NC(=O)[C@@H](Cc2ccccc2)NC(=O)[C@H](CCN)NC1=O)[C@@H](C)O [polymyxin B] (X1-[Dab]T[Dab][Dab][Dab][dF]L[Dab][Dab]T; lactam 4-C)	24.7 L
